Tested on: SK-OV-3 ovarian
Assay: NCI tumour cell line growth inhibition, 48 h
Reported TGI by item:

Given OC12c3ccccc3C1CCCCCCCCCC21OCCO1 (stereo not drawn) , state its recorded TGI.
> 100 µM

Next compound: NC(=O)CC(N)C(=O)NC(Cc1ccccc1)C(=O)NC(Cc1ccccc1)NC(=O)C(Cc1c[nH]c2ccccc12)C(=O)O (stereo not drawn)
> 100 µM

Next compound: O=[N+]([O-])/C=C(\CS(=O)(=O)c1ccccc1)c1ccc2c(c1)OCO2
> 100 µM

###

Test system: RXF 393 renal
Experiment: NCI tumour cell line growth inhibition, 48 h
Reported log10 of TGI by item:
log10 TGI, µM

Given O=C(c1ccco1)c1c(C(F)(F)F)n([O-])c2cc(C(F)(F)F)ccc2[n+]1=O , state its recorded log10 of TGI.
-0.03

Next compound: CC([C@H]1CC=C2C3CCC4=C[C@@H](N(C)C)CC[C@]4(C)C3CC[C@@]21C)N(C)C (stereo not given in full)
1.24

Next compound: C#CC1(O)CCC2[C@@H]3CCc4cc(Oc5nc(F)nc(-c6c7ccccc7c(SCC)n6CCC)n5)ccc4C3CC[C@@]21C (stereo not given in full)
1.74

Next compound: COc1ccc(/C=C2\SC(=Nc3ccccc3)NC2=O)cc1
1.43

Attention now shifts to the item below.
Given Cc1c(C)c(C)c(-n2c(=O)n(C)c(=O)n2-c2cc(C(C)(C)C)cc(C(C)(C)C)c2O)c(C)c1C , state its recorded log10 of TGI.
1.06

###

Test system: MDA-MB-231 breast
Assay: NCI tumour cell line growth inhibition, 48 h
observable: TGI

Test system MDA-MB-231 breast; read-out TGI; what value for CCN(CC)CCn1c(=O)c2c(C)c3oc4ccccc4oc3c(C)c2c1=O ?
> 100 µM

Next molecule: COC(=O)C(Cc1c[nH]c2ccccc12)NP(=O)(O)OCC1OC(n2cc(Br)c(=O)[nH]c2=O)CC1O (centres undefined)
> 100 µM

Next molecule: Nc1nc(SCc2ccccc2Cl)cc(C(=O)O)n1
> 100 µM

Next molecule: C#C[C@@]1(O)CCCC2=CC3(CC[C@]21C)SCCS3
> 100 µM

Next molecule: O=c1[nH]nc(Cc2ccccc2)n1/N=C/c1cccnc1
> 100 µM

More entries:
Test system MDA-MB-231 breast; read-out TGI; what value for COc1ccc2c(c1OC)C(C(Cl)(Cl)Cl)N1CCc3cc4c(cc3C1=C2)OCO4 (centres undefined) ?
> 100 µM

Next molecule: COC1=CC(c2ccc[nH]2)=N/C1=C\c1[nH]c(C)c(CC(=O)OCc2ccccc2)c1C
0.859 µM

Next molecule: CC1(C)OC(=O)C(C#N)=C1C[n+]1ccccc1
> 10 µM

Next molecule: COC(=O)c1c(C)cccc1C1CN=NC12Cc1cc(C)cc(C)c1C2=O (centres undefined)
98.2 µM

Next molecule: CCCCSC1=N/C(=C\c2ccc(N(C)C)cc2)C(=O)N1
75.8 µM

###

Reported TGI by item:
Tested on: RXF 393 renal
Test: NCI tumour cell line growth inhibition, 48 h
*1 amine or outer side, *2 acyl side, *3 side chain or, on linkers, in order; H or OH if unused. Where a SMILES comes first, the peptide text is derived from it. Bridges are numbered along the chain shown (N, C = ends). Roman numbers before positions name the chains, in order. [ ]: non-standard residue; d: D form. Actinocin(9to1) = Cc1c2oc3c(C)ccc(C(=O)[*:1])c3nc-2c(C(=O)[*:2])c(N)c1=O; Hyp = O=C(O)[CH]1C[CH](O)CN1; NMeV = CN[CH](C(=O)O)C(C)C; Sar = CNCC(=O)O

Worked cases, TGI given:
Given CC1(C)OC(=O)C(C#N)=C1C[n+]1ccccc1 , state its recorded TGI.
> 10 µM

Next molecule: Cc1c2oc3c(C)ccc(C(=O)NC4C(=O)NC(C(C)C)C(=O)N5CC(O)CC5C(=O)N(C)CC(=O)N(C)C(C(C)C)C(=O)OC4C)c3nc-2c(C(=O)NC2C(=O)NC(C(C)C)C(=O)N3CC(O)CC3C(=O)N(C)CC(=O)N(C)C(C(C)C)C(=O)OC2C)c(N)c1=O (stereo not given) (I: TV[Hyp][Sar][NMeV] / II: TV[Hyp][Sar][NMeV]; ester I:1-I:C, II:1-II:C; linker I:N-II:N via Actinocin(9to1); configuration not given here)
> 1 µM

Next molecule: CN1CCc2c(sc3ncn(Nc4ccc(Cl)cc4)c(=N)c23)C1
> 100 µM

Next molecule: COc1ccc(NC(C(N)=O)c2cc3cc(Br)ccc3nc2Cl)cc1 (stereo not given)
> 100 µM

Attention now shifts to the item below.
Given COc1cccc2cc(C(=O)Nc3ccccc3)c(=N)oc12 , state its recorded TGI.
> 100 µM

###

Test system: MDA-MB-231 breast
Assay: NCI tumour cell line growth inhibition, 48 h
Reported TGI by item:

Given Cc1ccc(NC(=O)/C(Cc2cc(=O)oc3cc(O)ccc23)=N\NC(C)(C)C)cc1C , state its recorded TGI.
> 100 µM

Next compound: CC1(C)C2CCC1C(=O)[C@@]1(C=CC(=O)CC1)C2 (some centres undefined)
> 100 µM

Next compound: NC(=O)c1cccc(OCC(O)CO)c1 (centres undefined)
> 100 µM

More entries:
Given O=C(N/N=C\c1cccc2ccccc12)Nc1cccc2ccccc12 , state its recorded TGI.
45.8 µM
